Recorded %Inh values for a group of molecules are listed next.
# System: CAMK1G;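 further: KINOMEscan kinase panel screen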
# test parameters: concentration: 1 μM, replicates: in singlicate; n = 1
I only need the number, in %, no unit after it.

Challenge: Need %Inh, item Nc1ncnc2c1ncn2-c1cccc2ccccc12
Response given: 8

Next:
Challenge: For the molecule CN1C(=O)C(Nc2cc(Cl)c(O)c(Cl)c2)=C(c2ccc(Cl)cc2)C1=O , what %Inh is on record?
Response given: 0

Challenge: // %Inh lookup, key: O=C1NC(=O)C(c2ccccc2)=C1Nc1cccc(O)c1
Response given: 0

Challenge: Consider the molecule CN1C(=O)C(Nc2ccccc2)=C(c2ccccc2)C1=O and give its measured %Inh.
Response given: 0

Challenge: I have this molecule here, CCn1c(-c2nonc2N)nc2ccccc21 , and I need its recorded %Inh.
Response given: 0

Challenge: Quick one: %Inh for COc1cc2ncn(-c3cc(OCc4ccncc4)c(C(N)=O)s3)c2cc1OC ?
Response given: 47

Challenge: Given the molecule Cc1ccccc1COc1cc(-n2cnc3cc(Cl)ccc32)sc1C(N)=O , what is its reported %Inh?
Response given: 0

Challenge: So what does the record say about %Inh for CN(C)c1cc(-c2ccc3c(N)n[nH]c3c2)nc(N)n1 ?
Response given: 0

Challenge: Endpoint output: %Inh of CCc1nc(-c2cccc(C)c2)c(-c2ccncc2)s1 . Value?
Response given: 0

Challenge: I'd like to know its %Inh. The molecule in question is CCC(=O)c1c(-c2ccccc2)c2cc(Cl)ccc2c(=O)n1Cc1cc(S(C)(=O)=O)n(CC(N)=O)n1
Response given: 0

These measurements were taken from paper PMC5540273.
